SUBJECT OF TEST: human P2X3 (Homo sapiens)
Sequence (P56373 whole entry): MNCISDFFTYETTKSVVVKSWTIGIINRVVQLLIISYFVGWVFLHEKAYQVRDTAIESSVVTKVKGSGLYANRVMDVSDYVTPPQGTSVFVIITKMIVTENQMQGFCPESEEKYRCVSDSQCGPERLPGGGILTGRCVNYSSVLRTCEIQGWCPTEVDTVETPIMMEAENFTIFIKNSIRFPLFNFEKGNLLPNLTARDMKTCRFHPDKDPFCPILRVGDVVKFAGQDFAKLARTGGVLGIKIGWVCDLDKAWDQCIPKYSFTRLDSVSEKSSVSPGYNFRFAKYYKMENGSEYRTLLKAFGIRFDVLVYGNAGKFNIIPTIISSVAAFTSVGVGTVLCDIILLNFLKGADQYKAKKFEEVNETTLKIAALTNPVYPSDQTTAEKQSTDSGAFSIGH
METHOD NOTES: Intracellular Calcium Measurement to Assess Antagonist Affinity (FLIPR, Fluo-4)
MEASUREMENT CONTEXT: Intracellular Calcium Measurement assay; agonist α,β-meATP at EC50
READOUT NAME: pIC50
Convention used: pIC50 is expressed as -log10 of the molar concentration.

Consider the worked cases shown below.
- COMPOUND: "Cc1ccc(-c2cc(C(=O)NC(C)c3nnc[nH]3)cc(N3CCOCC3)c2)c(F)c1 (stereo in doubt) [Example 4.109]"
  pIC50: 7.70
- COMPOUND: "C[C@@H](NC(=O)c1cc(-c2ccc(Cl)cn2)cc(C(C)(C)O)c1)c1ccc(C(F)(F)F)[n+]([O-])c1 [Example 4.539]"
  pIC50: 7.59
- COMPOUND: "Cc1ccc(-c2cc(C(=O)N[C@H](C)c3ncc(F)cc3F)cc(-c3nnc(C4CC4)n3C)c2)nc1 [Example 4.3]"
  pIC50: 7.96

Now, please, on to the next compound.
Exercise: Given the compound Cc1ccc(-c2cc(C(=O)N[C@H](C)c3ccc(F)cn3)cc(-c3ncccc3F)c2)nc1 [Example 4.252] , write its reported pIC50.
Key: 8.10

The reported numbers originate from patent US8247401B2.
